System: CAL-12T
Experiment: relative viability (nuclei count vs DMSO), 5 days (fraction); higher = more cells survive
Details: first compound 0.01 µM
We label by threshold. Values of relative viability strictly beneath 0.7 are T. Values of 0.7 and up are F.

IN: Below 0.7 on relative viability? Entry O=c1cc(N2CCOCC2)oc2c(-c3cccc4c3sc3ccccc34)cccc12 + CC(=O)c1c(C)c2cnc(Nc3ccc(N4CCNCC4)cn3)nc2n(C2CCCC2)c1=O [Palbociclib] (partner 0.5 µM)
OUT: T

IN: In the record for CCN(CC)CCCCNc1ncc2cc(-c3cc(OC)cc(OC)c3)c(NC(=O)NC(C)(C)C)nc2n1 + CC(=O)c1c(C)c2cnc(Nc3ccc(N4CCNCC4)cn3)nc2n(C2CCCC2)c1=O [Palbociclib] (partner 0.5 µM) , is relative viability less than 0.7?
OUT: T

IN: State whether 0.7 exceeds relative viability recorded for CCN(CC)CCCCNc1ncc2cc(-c3cc(OC)cc(OC)c3)c(NC(=O)NC(C)(C)C)nc2n1 + Cc1nc(Nc2ncc(C(=O)Nc3c(C)cccc3Cl)s2)cc(N2CCN(CCO)CC2)n1 [Dasatinib] (partner 0.075 µM) .
OUT: T

IN: # strict comparison: is reported relative viability < 0.7? input = O=c1cc(N2CCOCC2)oc2c(-c3cccc4c3sc3ccccc34)cccc12 + Cc1nc(NC(=O)N2CCC[C@H]2C(N)=O)sc1-c1ccnc(C(C)(C)C(F)(F)F)c1 [Alpelisib] (partner 2 µM)
OUT: F

IN: Please check: relative viability for CCN(CC)CCCCNc1ncc2cc(-c3cc(OC)cc(OC)c3)c(NC(=O)NC(C)(C)C)nc2n1 + CC(=O)Nc1cccc(-n2c(=O)n(C3CC3)c(=O)c3c(Nc4ccc(I)cc4F)n(C)c(=O)c(C)c32)c1 [Trametinib] (partner 0.02 µM) , strictly under 0.7 or not?
OUT: T

IN: Input CCN(CC)CCCCNc1ncc2cc(-c3cc(OC)cc(OC)c3)c(NC(=O)NC(C)(C)C)nc2n1 + O=C(CCCCCCC(=O)Nc1ccccc1)NO [Vorinostat] (partner 1 µM) ; condition: relative viability strictly below 0.7. Does it hold?
OUT: F

IN: Dear colleague, could you confirm whether relative viability of CCN(CC)CCCCNc1ncc2cc(-c3cc(OC)cc(OC)c3)c(NC(=O)NC(C)(C)C)nc2n1 + COc1cc2c(Oc3ccc(NC(=O)C4(C(=O)Nc5ccc(F)cc5)CC4)cc3F)ccnc2cc1OCCCN1CCOCC1 [Foretinib] (partner 0.25 µM) falls below 0.7? Thanks.
OUT: F

IN: Answer whether the compound O=c1cc(N2CCOCC2)oc2c(-c3cccc4c3sc3ccccc34)cccc12 + Cc1nc(Nc2ncc(C(=O)Nc3c(C)cccc3Cl)s2)cc(N2CCN(CCO)CC2)n1 [Dasatinib] (partner 0.075 µM) has relative viability strictly less than 0.7
OUT: T
